system: CYP3A4 mRNA; assay: in vitro; details: human, EC50, induction of CYP3A4 mRNA, primary human hepatocyte donor D1
pEC50: −log10 of the molar value.

{"Compound": "CCC1(c2ccccc2)C(=O)NC(=O)NC1=O [Phenobarbital, phenobarbital]", "pEC50": 3.60}

----------
system: CYP3A4 mRNA; experiment: CYP3A4 mRNA induction in 5F HepaRG control cells (real-time PCR); conditions: human, 5F HepaRG control cells, EC50, induction of CYP3A4 mRNA, 5F, 5F cells; 48 h; value of each individual experiment (two per cell)
Consider the following compounds and their measured EC50 at 48 h readings.

{"Compound": "NC(=O)N1c2ccccc2C=Cc2ccccc21 [Carbamazepine, carbamazepine]", "EC50 at 48 h (µM)": 37.4}
{"Compound": "Clc1ccc(-c2nc3sccn3c2C=NOCc2ccc(Cl)c(Cl)c2)cc1", "EC50 at 48 h (µM)": 1.9}
{"Compound": "O=C1NC(=O)C(c2ccccc2)(c2ccccc2)N1", "EC50 at 48 h (µM)": 18.1}

----------
system: CYP2B6 mRNA; assay: in vitro; conditions: human, cryopreserved primary human hepatocytes, donor D2 (Hu1601)

{"Compound": "CO[C@H]1/C=C/O[C@@]2(C)Oc3c(C)c(O)c4c(O)c(c(/C=N/N5CCN(C)CC5)c(O)c4c3C2=O)NC(=O)/C(C)=C\\C=C\\[C@H](C)[C@H](O)[C@@H](C)[C@@H](O)[C@@H](C)[C@H](OC(C)=O)[C@@H]1C", "EC50 at 48 h (µM)": 5.2}

----------
system: CYP3A4 mRNA; assay: in vitro; conditions: human, EC50, induction of CYP3A4 mRNA, primary human hepatocyte donor D3
pEC50: −log10 of the molar value.
Quantity: pEC50

{"Compound": "CCC1(c2ccccc2)C(=O)NC(=O)NC1=O", "Result number": 3.75}

----------
system: CYP3A4 mRNA; assay: CYP3A4 mRNA induction in cryopreserved primary human hepatocytes (real-time PCR); conditions: human, cryopreserved primary human hepatocytes, donor D3 (Hu8132)

{"Compound": "Clc1ccc(-c2nc3sccn3c2C=NOCc2ccc(Cl)c(Cl)c2)cc1 [CITCO]", "EC50 at 48 h (nM)": 400}

----------
system: CYP2B6 mRNA; assay: in vitro; conditions: male, human

{"Compound": "CCC1(c2ccccc2)C(=O)NC(=O)NC1=O", "Units of measure": "µM", "EC50 at 48 h": 186}

----------
system: CYP2B6 mRNA; assay: in vitro; details: human, cryopreserved primary human hepatocytes, donor D1 (Hu1455)

{"Compound": "CO[C@H]1/C=C/O[C@@]2(C)Oc3c(C)c(O)c4c(O)c(c(/C=N/N5CCN(C)CC5)c(O)c4c3C2=O)NC(=O)/C(C)=C\\C=C\\[C@H](C)[C@H](O)[C@@H](C)[C@@H](O)[C@@H](C)[C@H](OC(C)=O)[C@@H]1C [Rifampicin, rifampicin]", "Target under test": "CYP2B6 mRNA", "EC50 at 48 h (nM)": 100}
{"Compound": "Clc1ccc(-c2nc3sccn3c2C=NOCc2ccc(Cl)c(Cl)c2)cc1 [CITCO]", "Target under test": "CYP2B6 mRNA", "EC50 at 48 h (nM)": 200}

----------
system: CYP2B6 mRNA; assay: CYP2B6 mRNA induction in HepaRG wild-type cells (real-time PCR); assay type: in vitro ADME, human; conditions: human, EC50 ± SD
pEC50: −log10 of the molar value.
pEC50 values by entry
Quantity: pEC50

{"Compound": "NC(=O)N1c2ccccc2C=Cc2ccccc21 [Carbamazepine, carbamazepine]", "Quantity": "pEC50", "Result number": 4.92}
{"Compound": "CO[C@H]1/C=C/O[C@@]2(C)Oc3c(C)c(O)c4c(O)c(c(/C=N/N5CCN(C)CC5)c(O)c4c3C2=O)NC(=O)/C(C)=C\\C=C\\[C@H](C)[C@H](O)[C@@H](C)[C@@H](O)[C@@H](C)[C@H](OC(C)=O)[C@@H]1C", "Quantity": "pEC50", "Result number": 6.52}
{"Compound": "Clc1ccc(-c2nc3sccn3c2C=NOCc2ccc(Cl)c(Cl)c2)cc1", "Quantity": "pEC50", "Result number": 7.52}
{"Compound": "O=C1NC(=O)C(c2ccccc2)(c2ccccc2)N1", "Quantity": "pEC50", "Result number": 5.57}
{"Compound": "CCC1(c2ccccc2)C(=O)NC(=O)NC1=O", "Quantity": "pEC50", "Result number": 3.77}

----------
test system: CYP3A4 mRNA; assay: CYP3A4 mRNA induction in 5F HepaRG control cells (real-time PCR); conditions: human, 5F HepaRG control cells, EC50 of CYP3A4 induction in 5F cells, single value given in text, data the average of two experiments

{"Compound": "NC(=O)N1c2ccccc2C=Cc2ccccc21 [Carbamazepine, carbamazepine]", "EC50 at 48 h": "38 µM"}

----------
tested on: CYP3A4 mRNA; experiment: CYP3A4 mRNA induction in cryopreserved primary human hepatocytes (real-time PCR); settings: human, cryopreserved primary human hepatocytes, donor D1 (Hu1455)

{"Compound": "Clc1ccc(-c2nc3sccn3c2C=NOCc2ccc(Cl)c(Cl)c2)cc1", "EC50 at 48 h (nM)": 300}

----------
test system: CYP3A4 mRNA; test: in vitro; settings: human, EC50, induction of CYP3A4 mRNA, 5F
pEC50: −log10 of the molar value.

{"Compound": "CCC1(c2ccccc2)C(=O)NC(=O)NC1=O [Phenobarbital, phenobarbital]", "pEC50": 3.96}
